Task for the reader: assign each of the following molecules its reported relative viability.
Tested on: RD-ES
Experiment: relative viability vs DMSO control (72 h) (fraction); higher = more viable cells
Settings: 0.1235 µM
One number for each entry.

A selection of reference data follows.
[
  {
    "Molecule": "CO[C@@H]1[C@H](N(C)C(=O)c2ccccc2)C[C@H]2O[C@]1(C)n1c3ccccc3c3c4c(c5c6ccccc6n2c5c31)C(=O)NC4 [Midostaurin]",
    "Study target": "RD-ES",
    "relative viability": 0.883
  },
  {
    "Molecule": "Cc1cc(Nc2ncc(Cl)c(Nc3ccccc3S(=O)(=O)C(C)C)n2)c(OC(C)C)cc1C1CCNCC1 [Ceritinib]",
    "Study target": "RD-ES",
    "relative viability": 0.89
  },
  {
    "Molecule": "Cc1cn(-c2cc(NC(=O)c3ccc(C)c(Nc4nccc(-c5cnccn5)n4)c3)cc(C(F)(F)F)c2)cn1 [Radotinib]",
    "Study target": "RD-ES",
    "relative viability": 1.03
  }
]

State the recorded relative viability for every item in the following list.
1. COc1cc2ncnc(Nc3cccc(Cl)c3F)c2cc1OC(=O)N1CCN(C)C[C@H]1C [AZD-3759]
2. C#Cc1cccc(Nc2ncnc3cc(OCCOC)c(OCCOC)cc23)c1 [Erlotinib]
3. C=CC(=O)Nc1cccc(Nc2nc(Nc3ccc(N4CCN(C(C)=O)CC4)cc3OC)ncc2C(F)(F)F)c1 [Rociletinib]
4. Cc1c(F)cc(C(=O)NC2CC2)cc1-c1ccc(C(=O)NCC(C)(C)C)cn1 [Losmapimod]

Solution:
0.976
0.998
0.937
0.947
